Target: T1, mouse MAdCAM expressed on cells (mouse, UniProt Q61826 22-405)
T1 construct: whole, on cells
T1 sequence (looked up): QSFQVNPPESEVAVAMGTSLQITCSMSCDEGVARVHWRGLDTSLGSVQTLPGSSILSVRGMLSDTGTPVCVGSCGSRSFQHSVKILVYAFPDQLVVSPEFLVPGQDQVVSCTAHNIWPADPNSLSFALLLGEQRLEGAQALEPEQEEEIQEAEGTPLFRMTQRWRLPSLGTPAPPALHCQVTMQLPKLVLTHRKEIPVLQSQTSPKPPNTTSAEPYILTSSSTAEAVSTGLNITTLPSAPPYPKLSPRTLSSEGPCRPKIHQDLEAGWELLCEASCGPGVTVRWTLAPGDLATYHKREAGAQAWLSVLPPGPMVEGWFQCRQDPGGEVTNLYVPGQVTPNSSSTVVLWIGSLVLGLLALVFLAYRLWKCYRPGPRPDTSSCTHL
Assay: cell binding

# binder, binding result
data = [
    ("MAdCAM Antibody Table 2 Clone 80 (antibody, human IgG1, V domains shown) VH: EVQLLESGGGLVQPGGSLRLSCAASGFTFDDYAMHWVRQAPGKGLEWVSAISGSGGSTYYADSVKGRFTISRDNSKNTLYLQMNSLRAEDTAVYYCAKDLGVVVPAALDYWGQGTTVTVSS VL: DIQMTQSPSSLSASVGDRVTITCQASQDISNHLNWYQQKPGKAPKLLIYDASNLEAGVPSRFSGSGSGTDFTLTISSLQPEDFATYYCQQSYSTPLTFGGGTKVEIK", "no binding"),
    ("MAdCAM Antibody Table 2 Clone 63 (antibody, human IgG1, V domains shown) VH: EVQLLESGGGLVQPGGSLRLSCAASGFTFNNYGMNWVRQAPGKGLEWVSRINSDGSSTSYADSVKGRFTISRDNSKNTLYLQMNSLRAEDTAVYYCARGAYYYYYMDVWGQGTLVTVSS VL: EIVMTQSPATLSVSPGERATLSCRASQSVSGSYLAWYQQKPGQAPRLLIYATSSRASGIPARFSGSGSGTEFTLTISSLQSEDFAVYYCQQYYSGLTFGQGTKVEIK", "no binding"),
    ("MAdCAM Antibody Table 2 Clone 54 (antibody, human IgG1, V domains shown) VH: QVQLVQSGAEVKKPGSSVKVSCKASGGTLSRYGVSWVRQAPGQGLEWMGGIIPIFGTTNYAQKFQGRVTITADESTSTAYMELSSLRSEDTAVYYCARDRVYYDSSGYPTWYFDLWGRGTLVTVSS VL: EIVMTQSPATLSVSPGERATLSCRASQSVSSSYLAWYQQKPGQAPRLLIYGASTRATGIPARFSGSGSGTEFTLTISSLQSEDFAVYYCQQYGSSPITFGQGTKVEIK", "no binding"),
]
